The origin of these recorded values is ChEMBL document CHEMBL1961873.

Target: Protein kinase C eta type (Homo sapiens);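 further: value is the mean inhibition, from GSK PKIS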
Conditions: at 1 µM
Can you tell me inhibition for the items I'm about to list?
State the answer as a number, implicitly in %.

# input Can you share its inhibition? I mean this compound: `COC(=O)Nc1nc2cc(Oc3ccc(NC(=O)Nc4cccc(Br)c4)cc3)ccc2[nH]1`
# output 4.28

# input Given the compound `Cc1ccc(Nc2ccnc(Nc3cccc(C(N)=O)c3)n2)cc1O` , what is its reported inhibition?
# output 4.32

# input What does the record list as inhibition for `Cc1ccc(O)cc1Nc1ccnc2ccc(S(C)(=O)=O)cc12` ?
# output 6.46

# input Field request: inhibition | item: `NS(=O)(=O)c1ccc(N/N=C2\C(=O)Nc3ccc(Cl)cc32)cc1`
# output 4.71

# input Could you share which inhibition value was measured for `Cc1ccc(C(=O)NC2CC2)cc1-c1ccc2[nH]ncc2c1` ?
# output -3.72

# input Which inhibition is reported for this compound? `Oc1cccc(-c2nc(-c3ccccc3)[nH]c2-c2ccncc2)c1`
# output 9.76

# input Look at this compound and give its reported inhibition. `Nc1nccc(-c2c(-c3ccc(F)cc3)ncn2CCCN2CCOCC2)n1`
# output 7.49

# input Reported inhibition for `CN1CCN(C(=O)c2ccc(NC(=O)Nc3ccc(N(C)c4ccnc(Nc5ccc(CS(C)(=O)=O)cc5)n4)cc3)cc2)CC1` : what is it?
# output 2.34

# input Report inhibition for `O=C(Nc1ccc(Oc2ccc3[nH]c(NC(=O)c4ccco4)nc3c2)cc1)Nc1cc(C(F)(F)F)ccc1F` please.
# output -0.71

# input # query: inhibition of entry `COc1cc2ncnc(Nc3ccc4c(cnn4Cc4ccccc4)c3)c2cc1OC`
# output 3.69
